molecular target: mouse TGR5 receptor (Mus musculus, UniProt Q80SS6); construct: host or cells: HEK293-EBNA (293 c18, ATCC CRL10852); assay: Mouse TGR5 HTRF cAMP production assay (HEK293-EBNA cells, Cisbio cAMP HiRange kit); assay type: cell-based; conditions: HEK293-EBNA cells overexpressing mouse TGR5, HTRF cAMP assay
Sequence (Q80SS6 whole entry): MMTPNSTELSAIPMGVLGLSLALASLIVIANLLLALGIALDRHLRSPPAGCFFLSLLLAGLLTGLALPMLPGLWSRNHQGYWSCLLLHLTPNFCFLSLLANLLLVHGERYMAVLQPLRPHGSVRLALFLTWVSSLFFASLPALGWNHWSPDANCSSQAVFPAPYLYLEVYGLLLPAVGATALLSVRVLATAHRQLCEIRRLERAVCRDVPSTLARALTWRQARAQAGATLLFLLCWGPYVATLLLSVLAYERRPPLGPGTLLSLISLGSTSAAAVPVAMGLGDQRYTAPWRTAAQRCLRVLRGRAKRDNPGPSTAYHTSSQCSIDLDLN
readout-name: EC50

Sample records with EC50:
{"input-smiles": "N#Cc1ccc(CCNC(=O)[C@@H]2CCCN2c2cc(N3CCC(CCNS(=O)(=O)CCNC(=O)NCCC(=O)O)CC3)nc(C(F)(F)F)n2)cc1", "test-system": "mouse TGR5 receptor (Mus musculus, UniProt Q80SS6)", "EC50": "< 100 nM"}
{"input-smiles": "O=C(O)CN1CCC(CCCC2CCN(c3cc(N4CC[C@H]4C(=O)NCCc4ccc(C(F)(F)F)cc4)nc(C(F)(F)F)n3)CC2)CC1", "test-system": "mouse TGR5 receptor (Mus musculus, UniProt Q80SS6)", "EC50": "< 100 nM"}

*Q* Query EC50 on mouse TGR5 receptor (Mus musculus, UniProt Q80SS6) for `N#Cc1ccc(CCNC(=O)[C@@H]2CCCN2c2cc(N3CCC(CCC(=O)NCCS(=O)(=O)O)CC3)nc(C(F)(F)F)n2)cc1`
*A* < 100 nM
